Assay Name: in vivo
Condition Context: rat, po
Reported Property: bioavailability

GET /values?readout=bioavailability&item= `CCC[C@H](NC(=O)[C@@H]1[C@H]2CCC[C@H]2CN1C(=O)[C@@H](NC(=O)[C@@H](NC(=O)c1cnccn1)C1CCCCC1)C(C)(C)C)C(=O)C(=O)NC1CC1`
< 0.5%
